target: Human MC1R (Homo sapiens); construct: endogenous in cells; assay: Human MC1R agonistic activity measurement (cAMP assay) using human melanoma cell line HBL; conditions: HBL cells, intracellular cAMP, 37° C. for 30 minutes
pEC50: −log10 of the molar value. Where a name gives a salt, the structure may show the parent alone.
recordedEndpoint: pEC50

COc1ccc([C@@H]2CN(C(C)(C)C)C[C@@]2(F)C(=O)Nc2nccn2Cc2ccc(C(C)C)cc2N2CCC(C(=O)O)CC2)cc1 [Example 54] = 8.55
CC(C)(C)N1C[C@@H](c2ccc(F)cc2)[C@](F)(C(=O)Nc2nccn2Cc2ccc(C(F)(F)F)cc2N2CCC(C(=O)O)CC2)C1 [Example 43] = 8.22
Cc1ccc(Cn2ccnc2NC(=O)[C@@H]2CN(C(C)(C)C)C[C@H]2c2ccc(F)cc2F)c(N2CCC(C(=O)NS(=O)(=O)N(C)C)CC2)c1 [Example 85, trihydrochloride] = 7.80
COC(C)(C)CCCN1C[C@@H](c2ccc(F)cc2F)[C@](F)(C(=O)Nc2nccn2Cc2ccc(C(F)(F)F)cc2N2CCC(C(=O)O)CC2)C1 [Example 19] = 8.46
CC(C)(C)N1C[C@@H](c2ccc(F)cn2)[C@](F)(C(=O)Nc2nccn2Cc2ccc(C(F)(F)F)nc2N2CCOCC2)C1 [Example 80] = 7.17
O=C(O)C1CCN(c2cc(C(F)(F)F)ccc2Cn2ccnc2NC(=O)[C@]2(F)CN(CCCS(=O)(=O)N3CCCC3)C[C@H]2c2ccc(F)cc2F)CC1 [Example 26] = 8.12
Cc1ccc(Cn2ccnc2NC(=O)[C@@H]2CN(C3(C)CCN(CCO)CC3)C[C@H]2c2ccc(F)cc2F)c(N2CCOCC2)c1 [Example 64] = 8.64
CC(C)c1ccc(Cn2ccnc2NC(=O)[C@]2(F)CN(C(C)(C)C)C[C@H]2c2ccc(F)cc2)c(N2CCC(C(=O)O)CC2)c1 [Example 49] = 8.70
COc1ccc([C@@H]2CN(C(C)(C)C)C[C@@]2(F)C(=O)Nc2nccn2Cc2ccc(C(F)(F)F)cc2N2CCC(C(=O)O)CC2)cc1 [Example 52] = 8.80
Cc1ccc(Cn2ccnc2NC(=O)[C@@H]2CN(CC[C@H]3Cc4ccccc4CN3)C[C@H]2c2ccc(F)cc2F)c(N2CCC(C(=O)O)CC2)c1 [Example 32] = 8.55

[a] O=C(O)C1CCN(c2cc(C(F)(F)F)ccc2Cn2ccnc2NC(=O)[C@]2(F)CN(C3CCCC3)C[C@H]2c2ccc(F)cc2F)CC1 [Example 16]
[b] COC(C)(C)CCCN1C[C@@H](c2ccc(F)cc2F)[C@](F)(C(=O)Nc2nccn2Cc2ccc(C)cc2N2CCC(C(=O)O)CC2)C1 [Example 13]
Task item: Problem: Given the entries a and b , determine which has the lower reported pEC50. Give the label of your selection.
Reply: b

----------
biological target: Human MC1R (Homo sapiens, UniProt Q01726); construct: endogenous in cells; host or cells: human melanoma cell line HBL; experiment: Human MC1R agonistic activity measurement (cAMP assay) using human melanoma cell line HBL; type: cell-based; conditions: 0.5 h; Intrinsic Activity; vehicle cAMP = 0%, αMSH at 10^-6 M = 100%; HBL cells; read-out: Human MC1R IA %
Sequence (Q01726 whole entry): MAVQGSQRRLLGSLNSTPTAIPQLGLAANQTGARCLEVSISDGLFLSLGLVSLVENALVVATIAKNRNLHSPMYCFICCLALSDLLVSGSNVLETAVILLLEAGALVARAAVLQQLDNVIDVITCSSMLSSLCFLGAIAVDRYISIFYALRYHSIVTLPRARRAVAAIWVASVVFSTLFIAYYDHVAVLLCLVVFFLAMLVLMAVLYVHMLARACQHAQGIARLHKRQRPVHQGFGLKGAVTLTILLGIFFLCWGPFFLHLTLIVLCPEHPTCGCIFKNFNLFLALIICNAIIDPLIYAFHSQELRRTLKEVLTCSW
recordedEndpoint: Emax (%)

CN(C)C(=O)CCCN1CC(c2ccc(F)cc2F)C(C(=O)Nc2nccn2Cc2ccc(C(F)(F)F)cc2N2CCC(C(=O)O)CC2)(C(F)(F)F)C1 (stereo not drawn) = 91
O=C(O)C1CCN(c2cc(C(F)(F)F)ccc2Cn2ccnc2NC(=O)[C@]2(F)CN(C3CCCC3)C[C@H]2c2ccc(F)cc2F)CC1 = 88
COC(C)(C)CCCN1C[C@@H](c2ccc(F)cc2F)[C@](F)(C(=O)Nc2nccn2Cc2ccc(C)cc2N2CCC(C(=O)O)CC2)C1 = 89

----------
target: Human MC1R (Homo sapiens, UniProt Q01726); construct: endogenous in cells; experiment: Human MC1R agonistic activity measurement (cAMP assay) using human melanoma cell line HBL; settings: HBL cells, intracellular cAMP, 37° C. for 30 minutes
pEC50: −log10 of the molar value.
recordedEndpoint: pEC50

CC(C)(C)N1C[C@@H](C(=O)Nc2nccn2CC2(N3CCOCC3)CCCCC2)[C@H](c2ccc(F)cc2F)C1 [Example 70] = 7.08
Cc1ccc(Cn2ccnc2NC(=O)[C@@H]2CN(c3ccnc(C)c3)C[C@H]2c2ccc(F)cc2F)c(N2CCOCC2)c1 [Example 72] = 7.70
CN(C)C(=O)CCCN1CC(c2ccc(F)cc2F)C(C(=O)Nc2nccn2Cc2ccc(C(F)(F)F)cc2N2CCC(C(=O)O)CC2)(C(F)(F)F)C1 (stereo not drawn) [Example 28] = 7.60
